Target: PDGFRα (Homo sapiens)
Construct: purchased Millipore 14-467 (lot 26321_ACTI)
Sequence (P16234 24-1089): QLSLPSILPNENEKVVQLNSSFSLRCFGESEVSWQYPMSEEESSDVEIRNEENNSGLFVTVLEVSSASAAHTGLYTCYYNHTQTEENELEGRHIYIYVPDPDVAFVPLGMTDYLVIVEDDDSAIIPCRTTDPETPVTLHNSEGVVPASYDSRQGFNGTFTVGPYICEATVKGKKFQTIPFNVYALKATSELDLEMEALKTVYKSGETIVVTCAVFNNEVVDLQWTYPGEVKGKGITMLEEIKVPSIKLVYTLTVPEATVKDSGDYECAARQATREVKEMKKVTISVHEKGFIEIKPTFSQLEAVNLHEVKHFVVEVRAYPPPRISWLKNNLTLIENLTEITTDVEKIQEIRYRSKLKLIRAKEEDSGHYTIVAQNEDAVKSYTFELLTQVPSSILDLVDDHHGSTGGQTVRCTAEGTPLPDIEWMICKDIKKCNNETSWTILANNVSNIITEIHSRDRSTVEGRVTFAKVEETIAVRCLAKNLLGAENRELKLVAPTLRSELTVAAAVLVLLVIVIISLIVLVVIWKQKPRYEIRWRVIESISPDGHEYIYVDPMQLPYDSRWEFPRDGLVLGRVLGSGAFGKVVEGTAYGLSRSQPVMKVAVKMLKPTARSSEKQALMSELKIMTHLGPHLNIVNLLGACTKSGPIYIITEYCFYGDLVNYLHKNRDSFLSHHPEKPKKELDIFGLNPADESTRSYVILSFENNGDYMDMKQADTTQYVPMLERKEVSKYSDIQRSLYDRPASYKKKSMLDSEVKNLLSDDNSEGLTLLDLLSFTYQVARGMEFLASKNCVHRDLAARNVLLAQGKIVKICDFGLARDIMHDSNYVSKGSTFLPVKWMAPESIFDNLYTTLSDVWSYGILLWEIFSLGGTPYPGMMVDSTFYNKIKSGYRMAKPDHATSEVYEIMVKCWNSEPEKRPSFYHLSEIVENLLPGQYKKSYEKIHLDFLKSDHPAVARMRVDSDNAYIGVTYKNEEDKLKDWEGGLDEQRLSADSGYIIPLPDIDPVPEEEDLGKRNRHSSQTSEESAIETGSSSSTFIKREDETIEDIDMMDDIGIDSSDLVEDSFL
Assay: Caliper biochemical assay, PDGFRα
Conditions: Table 6
Readout Kind: IC50

Before answering, review these 5 worked examples.
Cc1nc(-c2ccc(Cl)c(NC(=O)c3cnc4ccccn34)c2)no1 [Compound I-172] ... 500 to 5000 nM
Cc1ccc(-c2noc([C@H]3C[C@@H]3F)n2)cc1NC(=O)c1cnc2ccc(N3CCC3)cn12 [Compound I-291] ... 50 to 500 nM
Cc1ccc(-c2noc([C@H]3C[C@@H]3F)n2)cc1NC(=O)c1cnc2ccc(N3CCCC3)cn12 [Compound I-361] ... 50 to 500 nM
Cc1ccc(-c2noc([C@H](C)NS(=O)(=O)c3cnn(C)c3)n2)cc1NC(=O)c1cnc2ccccn12 (racemic) [Compound I-181] ... 500 to 5000 nM
Cc1ccc(-c2noc(CC(O)C(F)(F)F)n2)cc1NC(=O)c1cnc2ccccn12 (racemic) [Compound I-183] ... 5000 to 30000 nM

Kindly consider the entry below.
query: So what does the record say about IC50 for Cc1ccc(-c2noc(C3CCCCN3S(C)(=O)=O)n2)cc1NC(=O)c1cnc2ccccn12 (racemic) [Compound I-174] ?
result: 50 to 500 nM
